Data provenance: patent US4705799A

# System: Staphylococcus epidermidis
# assayNotes: In vitro broth dilution minimal inhibitory concentration (standard microdilution method)
# Format: cell-based
# runParameters: 24 h, Mueller-Hinton broth, 24-hour, read-out: Microdilution Broth MIC
Each item that follows carries a reported MIC.
reportedProperty: MIC (µg/mL)

# compound, qualifyingSign, value
data = [
    ("CCOC(OCC)C(=O)NCC1CN(c2ccc(S(C)(=O)=O)cc2)C(=O)O1 (stereo not drawn)", ">", 200),
    ("CC(=O)NCC1CN(c2ccc(C(C)(O)CO)cc2)C(=O)O1 (stereo not drawn)", "=", 16),
    ("CS(=O)(=O)c1ccc(N2CC(CN)OC2=O)cc1 (single isomer, unassigned) [Example 11]", ">", 100),
    ("COC(=O)NCC1CN(c2ccc(C(F)(F)F)cc2)C(=O)O1 (stereo not drawn)", "=", 100),
    ("CC(=O)NCC1CN(c2ccc(CBr)cc2)C(=O)O1 (single isomer, unassigned)", "=", 64),
    ("CC(=O)NCC1CN(c2ccc(C(F)(F)C(F)(F)F)cc2)C(=O)O1 (stereo not drawn)", "=", 2),
    ("CS(=O)(=O)c1ccc(N2CC(CNC(=O)C(F)(F)F)OC2=O)cc1 (stereo not drawn)", "=", 12.5),
    ("CCCOC(=O)NCC1CN(c2ccc(S(C)(=O)=O)cc2)C(=O)O1 (stereo not drawn)", "=", 50),
    ("CC(=O)NCC1CN(c2ccc(C(C)=NNC(C)=O)cc2)C(=O)O1 (single isomer, unassigned) [Example 132]", "=", 6.2),
    ("CCCCc1ccc(N2CC(CNC(C)=O)OC2=O)cc1 (stereo not drawn)", "=", 6.2),
    ("CC(=O)c1ccc(N2CC(CN)OC2=O)cc1 (stereo not drawn) [Example 15]", ">", 200),
    ("CC(=O)NCC1CN(c2ccc(C(O)CO)cc2)C(=O)O1 (stereo not drawn)", "=", 32),
    ("CC(=O)NCC1CN(c2ccc(C(C)C)cc2)C(=O)O1 (stereo not drawn) [Example 38]", "=", 9.4),
    ("CS(=O)(=O)c1ccc(N2CC(CNC(=O)CCl)OC2=O)cc1 (stereo not drawn)", "=", 3.2),
    ("CC(=O)c1ccc(N2CC(CN=[N+]=[N-])OC2=O)cc1 (stereo not drawn)", "=", 200),
    ("CCCCCCN(CC1CN(c2ccc(S(C)(=O)=O)cc2)C(=O)O1)C(=O)OC (racemic)", ">", 200),
    ("CS(=O)(=O)NCC1CN(c2ccc(S(C)(=O)=O)cc2)C(=O)O1 (single isomer, unassigned)", "=", 100),
    ("CC(=O)NCC1CN(c2ccc(C)cc2)C(=O)O1 (stereo not drawn)", "=", 200),
]

###

# Tested on: Staphylococcus epidermidis
# assayNotes: In vitro broth dilution minimal inhibitory concentration (standard microdilution method)
# Format: cell-based
# runParameters: 24 h, Mueller-Hinton broth, 24-hour, read-out: Microdilution Broth MIC
Where a name gives a salt, the structure may show the parent alone.
reportedProperty: MIC (µg/mL)

# compound, unitSymbol, qualifyingSign, value
data = [
    ("CC(=O)NCC1CN(c2cccc(C(C)=O)c2)C(=O)O1 (stereo not shown)", "µg/mL", "=", 200),
    ("CC(=O)NC[C@H]1CN(c2ccc([S@@+](C)[O-])cc2)C(=O)O1", "µg/mL", "=", 4),
    ("CC(=O)NCC1CN(c2ccc(S(C)(=O)=O)cc2)C(=O)O1 (single isomer, unassigned)", "µg/mL", "=", 3.2),
    ("CS(=O)(=O)c1ccc(N2CC(CN)OC2=O)cc1 (racemic) [Example 10, trifluoroacetic Acid Salt]", "µg/mL", "=", 50),
    ("COC(=O)NCC1CN(c2ccc(S(C)(=O)=O)cc2)C(=O)O1 (single isomer, unassigned)", "µg/mL", "=", 6.3),
    ("COC(=O)NCC1CN(c2ccc(SC(C)=O)cc2)C(=O)O1 (single isomer, unassigned)", "µg/mL", ">", 200),
    ("COC(=O)NCC1CN(c2ccc(S(=O)(=O)N(C)OC)cc2)C(=O)O1 (stereo not shown)", "µg/mL", "=", 12.5),
    ("CCCCc1ccc(N2CC(CNC(=O)OC)OC2=O)cc1 (stereo not shown)", "µg/mL", "=", 25),
    ("CSCc1ccc(N2CC(CNC(C)=O)OC2=O)cc1 (single isomer, unassigned)", "µg/mL", "=", 2),
    ("CC(=O)NCC1CN(c2ccc(C(C)O)cc2)C(=O)O1 (single isomer, unassigned)", "µg/mL", "=", 3.1),
    ("CC(=O)NCC1CN(c2ccc([N+](=O)[O-])cc2)C(=O)O1 (single isomer, unassigned)", "µg/mL", "=", 2.4),
    ("COC(OC)C(=O)NCC1CN(c2ccc(S(C)(=O)=O)cc2)C(=O)O1 (stereo not shown)", "µg/mL", "=", 100),
    ("NS(=O)(=O)c1ccc(N2CC(CNC(=O)C(Cl)Cl)OC2=O)cc1 (single isomer, unassigned)", "µg/mL", "=", 12.5),
    ("CC(=O)NCC1CN(c2ccc(C(C)=NO)cc2)C(=O)O1 (single isomer, unassigned)", "µg/mL", "=", 4),
    ("CSc1ccc(N2CC(CNC(=O)CCCl)OC2=O)cc1 (stereo not shown)", "µg/mL", "=", 50),
    ("CC(=O)NCC1CN(c2ccc(NS(C)(=O)=O)cc2)C(=O)O1 (single isomer, unassigned)", "µg/mL", "=", 200),
]

###

# System: Staphylococcus epidermidis
# assayNotes: In vitro broth dilution minimal inhibitory concentration (standard microdilution method)
# Assay type: cell-based
# runParameters: 24 h, Mueller-Hinton broth, 24-hour, read-out: Microdilution Broth MIC

# compound, qualifyingSign, MIC / µg/mL
measured = [
    ("CS(=O)(=O)c1ccc(N2CC(CNC(=O)CCCl)OC2=O)cc1 (stereo not shown) [Example 94]", "=", 18.8),
    ("CS(=O)(=O)c1ccc(N2CC(CNC(=O)CN=[N+]=[N-])OC2=O)cc1 (stereo not shown) [Example 158]", "=", 6.3),
    ("CC(=O)NCC1CN(c2ccc(C(C)C)cc2)C(=O)O1 (single isomer, unassigned) [Example 51]", "=", 3.1),
    ("COC(=O)N(C)CC1CN(c2ccc(S(C)(=O)=O)cc2)C(=O)O1 (stereo not shown) [Example 128]", ">", 200),
]

###

Catalogue of compounds with associated MIC
# Test system: Staphylococcus epidermidis
# assayNotes: In vitro broth dilution minimal inhibitory concentration (standard microdilution method)
# Format: cell-based
# runParameters: 24 h, Mueller-Hinton broth, 24-hour, read-out: Microdilution Broth MIC
reportedProperty: MIC

# compound, value
data = [
    ("CC(=O)Cc1ccc(N2CC(CNC(C)=O)OC2=O)cc1 (stereo not drawn) [Example 99]", "25 µg/mL"),
    ("COC(=O)NCC1CN(c2ccc([S+](C)[O-])cc2)C(=O)O1 (single isomer, unassigned) [Example 121]", "18.8 µg/mL"),
    ("CC(=O)NCC1CN(c2ccc(NC(C)=O)cc2)C(=O)O1 (single isomer, unassigned) [Example 150]", "200 µg/mL"),
    ("CNC(=O)NCC1CN(c2ccc(S(C)(=O)=O)cc2)C(=O)O1 (stereo not drawn) [Example 35]", "25 µg/mL"),
    ("CC(=O)NCC1CN(c2ccc(CCCO)cc2)C(=O)O1 (stereo not drawn) [Example 107]", "2 µg/mL"),
    ("COC(=O)NCC1CN(c2ccc(S(N)(=O)=O)cc2)C(=O)O1 (stereo not drawn) [Example 45]", "37.5 µg/mL"),
    ("CCc1cc(N2CC(CNC(C)=O)OC2=O)ccc1C(C)=O (stereo not drawn) [Example 143]", "16 µg/mL"),
    ("CC(=O)NCC1CN(c2ccc(I)cc2)C(=O)O1 (single isomer, unassigned) [Example 145]", "12.5 µg/mL"),
    ("CS(=O)(=O)c1ccc(N2CC(CNC=O)OC2=O)cc1 (single isomer, unassigned) [Example 21]", "6.3 µg/mL"),
]

###

# Tested on: Staphylococcus epidermidis
# assayNotes: In vitro broth dilution minimal inhibitory concentration (standard microdilution method)
# Format: cell-based
# runParameters: 24 h, Mueller-Hinton broth, 24-hour, read-out: Microdilution Broth MIC
reportedProperty: MIC (µg/mL)

# compound, value
measured = [
    ("CC(=O)c1ccc(N2CC(CNC=O)OC2=O)cc1 (stereo not drawn)", 4),
    ("CC(=O)c1ccc(N2CC(CNC(=O)CCCl)OC2=O)cc1 (stereo not drawn)", 12.5),
    ("CC(=O)c1ccc(N2CC(CNC(=O)C(F)(F)F)OC2=O)cc1 (stereo not drawn)", 16),
    ("CCC(=O)NCC1CN(c2ccc(C(C)=O)cc2)C(=O)O1 (single isomer, unassigned)", 4),
    ("CCc1ccc(N2CC(CNC(C)=O)OC2=O)cc1 (single isomer, unassigned) [Example 133]", 1.6),
    ("CC(=O)NCC1CN(c2ccc(CO)cc2)C(=O)O1 (stereo not drawn)", 64),
    ("COc1ccc(N2CC(CNC(C)=O)OC2=O)cc1 (stereo not drawn)", 100),
    ("CS(=O)(=O)c1ccc(N2CC(CNC(N)=O)OC2=O)cc1 (stereo not drawn)", 200),
    ("CCCC(=O)c1ccc(N2CC(CNC(C)=O)OC2=O)cc1 (stereo not drawn)", 1),
]
